Data provenance: patent US8343475B2

Chemokine induction MCP-3 reference
# Tested on: MCP-3 release by human PBMC
# assay-comment: Chemokine induction in PBMC (capture ELISA)
# Assay type: cell-based
# condition-info: 100 μg/ml peptide, background (6) subtracted
Residues, ends and D or L forms follow the SMILES beside them.

Query: What value of Chemokine induction MCP-3 has been reported for the following compound? CC[C@H](C)[C@H](NC(=O)[C@H](Cc1c[nH]c2ccccc12)NC(=O)[C@@H](NC(=O)[C@H](Cc1c[nH]c2ccccc12)NC(=O)[C@H](CCCNC(=N)N)NC(=O)[C@H](CCCCN)NC(=O)[C@@H](N)CCCCN)C(C)C)C(=O)N[C@@H](CCCNC(=N)N)C(=O)N[C@@H](Cc1ccc(O)cc1)C(N)=O [HHC69, KKRWVWIRY] (H-KKRWVWIRY-NH2; N-terminus assumed)
Response: 0 pg/mL

Query: Now consider N=C(N)NCCC[C@H](NC(=O)[C@H](CCCNC(=N)N)NC(=O)[C@H](Cc1c[nH]c2ccccc12)NC(=O)[C@H](Cc1c[nH]c2ccccc12)NC(=O)[C@H](CCCCN)NC(=O)[C@H](Cc1c[nH]c2ccccc12)NC(=O)[C@H](Cc1c[nH]c2ccccc12)NC(=O)[C@H](CCCNC(=N)N)NC(=O)[C@@H](N)CCCCN)C(N)=O [HHC36, KRWWKWWRR] (H-KRWWKWWRR-NH2; N-terminus assumed) and answer again.
Response: 1 pg/mL

Query: Also need CC[C@H](C)[C@H](NC(=O)[C@H](Cc1c[nH]c2ccccc12)NC(=O)[C@H](Cc1c[nH]c2ccccc12)NC(=O)[C@H](CCCCN)NC(=O)[C@H](CC(C)C)NC(=O)[C@H](CCCNC(=N)N)NC(=O)[C@H](CCCCN)NC(=O)[C@@H](N)CCCNC(=N)N)C(=O)N[C@@H](Cc1ccc(O)cc1)C(N)=O [HHC66, RKRLKWWIY] (H-RKRLKWWIY-NH2; N-terminus assumed) , thanks.
Response: 0 pg/mL

====

# System: Enterococcus faecalis ATCC29212
# Type: cell-based
# condition-info: ATCC29212
# Experimental: Minimal inhibitory concentration (MIC) determination. The MIC of the peptides were measured using a modified broth microdilution method in Mueller Hinton (MH) medium (Wu M, Hancock R E W. 1999. Interaction of the cyclic antimicrobial cationic peptide bactenecin with the outer and cytoplasmic membrane. J Biol Chem 274, 29-35). Briefly, the peptides were dissolved and stored in glass vials. The assay was performed in sterile 96-well polypropylene microtitre plates were used. […]
Residues, ends and D or L forms follow the SMILES beside them.
parameter: MIC

Query: Consider the molecule shown here: CC[C@H](C)[C@H](NC(=O)[C@H](Cc1c[nH]c2ccccc12)NC(=O)[C@H](CCCCN)NC(=O)[C@H](Cc1c[nH]c2ccccc12)NC(=O)[C@H](Cc1c[nH]c2ccccc12)NC(=O)[C@H](CCCNC(=N)N)NC(=O)[C@@H](N)CCCCN)C(=O)N[C@@H](CCCNC(=N)N)C(=O)N[C@@H](Cc1c[nH]c2ccccc12)C(N)=O [HHC10, KRWWKWIRW] (H-KRWWKWIRW-NH2; N-terminus assumed) What is its recorded MIC?
Response: 12 µM

Query: Try this molecule next: CC[C@H](C)[C@H](NC(=O)[C@H](CC(N)=O)NC(=O)[C@H](CCCCN)NC(=O)[C@H](Cc1ccccc1)NC(=O)[C@H](CCCNC(=N)N)NC(=O)[C@H](Cc1c[nH]c2ccccc12)NC(=O)[C@H](C)N)C(=O)N[C@@H](CCCNC(=N)N)C(=O)N[C@@H](CCCCN)C(N)=O [HHC126, AWRFKNIRK] (H-AWRFKNIRK-NH2; N-terminus assumed)
Response: >223 µM

Query: What do you have for N=C(N)NCCC[C@H](NC(=O)[C@H](CCCNC(=N)N)NC(=O)[C@H](CCCCN)NC(=O)[C@H](Cc1c[nH]c2ccccc12)NC(=O)[C@H](Cc1c[nH]c2ccccc12)NC(=O)[C@H](CCCCN)NC(=O)[C@H](CCCCN)NC(=O)[C@@H](N)Cc1c[nH]c2ccccc12)C(=O)N[C@@H](Cc1c[nH]c2ccccc12)C(N)=O [HHC48, WKKWWKRRW] (H-WKKWWKRRW-NH2; N-terminus assumed) ?
Response: 93 µM

Query: Consider next the molecule N=C(N)NCCC[C@H](NC(=O)[C@H](CCCNC(=N)N)NC(=O)[C@H](Cc1c[nH]c2ccccc12)NC(=O)[C@H](Cc1c[nH]c2ccccc12)NC(=O)[C@H](CCCCN)NC(=O)[C@H](Cc1c[nH]c2ccccc12)NC(=O)[C@H](Cc1c[nH]c2ccccc12)NC(=O)[C@H](CCCNC(=N)N)NC(=O)[C@@H](N)CCCCN)C(N)=O [HHC36, KRWWKWWRR] (H-KRWWKWWRR-NH2; N-terminus assumed) in the same way.
Response: 43 µM

Query: Same again, this time with CC(C)C[C@H](NC(=O)[C@H](Cc1c[nH]c2ccccc12)NC(=O)[C@H](Cc1c[nH]c2ccccc12)NC(=O)[C@H](CCCCN)NC(=O)[C@H](Cc1c[nH]c2ccccc12)NC(=O)[C@H](CCCNC(=N)N)NC(=O)[C@H](CCCNC(=N)N)NC(=O)[C@H](Cc1c[nH]c2ccccc12)NC(=O)[C@@H](N)CCCNC(=N)N)C(N)=O [HHC9, RWRRWKWWL] (H-RWRRWKWWL-NH2; N-terminus assumed)
Response: 23 µM
